Provenance of the data: patent US5830888A

# assayed target: HIV protease (Human immunodeficiency virus type 1 group M subtype B, UniProt P04585)
# Construct: HIV protease is diluted in the assay buffer to a final enzyme concentration of 12.3 nanomolar, based on a molecular weight of 10,780
# method notes: HIV protease enzyme assay (fluorescence, substrate 2-aminobenzoyl-lle-Nle-Phe(p-NO2)-Gin-ArgNH2)
# Type: biochemical
# condition set: 10 microM; HIV protease 12.3 nanomolar; substrate 80 μM; pH 6.4
measured quantity: inhibition at 10 µM (%)
One number for each entry, in %.

Please review the following examples before continuing.
molecule	obs value
CC(C)CCN1C[C@@H](O)[C@H](Cc2ccccc2)NC(=O)CCSCCCCCNC1=O [Compound 5]	20
CC(C)CCN1C[C@@H](O)[C@H](Cc2ccccc2)NC(=O)CCS(=O)(=O)CCCCCNC1=O [Compound 17]	21
CC(C)CCN1C[C@@H](O)[C@H](Cc2ccccc2)NC(=O)[C@@H](NC(=O)OCc2ccccc2)CC(=O)NCCCNC1=O [Compound 20]	16

Now take the following molecule into account.
Problem: Please state recorded inhibition at 10 µM (tested on HIV protease (Human immunodeficiency virus type 1 group M subtype B, UniProt P04585)) of CC(C)CCN1C[C@@H](O)[C@H](Cc2ccccc2)NC(=O)[C@@H](NC(=O)OCc2ccccc2)CSCCCCCCC1=O [Compound 10]
Solution: 47
